These data points were gathered from paper PMC7470033.

target of assay: CYP3A4 (Homo sapiens, UniProt P08684)
Construct: Pooled HLMs were purchased from BD Biosciences Discovery Labware; tissue BD Biosciences Discovery Labware; host or cells: pooled human liver microsomes
Sequence (P08684 whole entry): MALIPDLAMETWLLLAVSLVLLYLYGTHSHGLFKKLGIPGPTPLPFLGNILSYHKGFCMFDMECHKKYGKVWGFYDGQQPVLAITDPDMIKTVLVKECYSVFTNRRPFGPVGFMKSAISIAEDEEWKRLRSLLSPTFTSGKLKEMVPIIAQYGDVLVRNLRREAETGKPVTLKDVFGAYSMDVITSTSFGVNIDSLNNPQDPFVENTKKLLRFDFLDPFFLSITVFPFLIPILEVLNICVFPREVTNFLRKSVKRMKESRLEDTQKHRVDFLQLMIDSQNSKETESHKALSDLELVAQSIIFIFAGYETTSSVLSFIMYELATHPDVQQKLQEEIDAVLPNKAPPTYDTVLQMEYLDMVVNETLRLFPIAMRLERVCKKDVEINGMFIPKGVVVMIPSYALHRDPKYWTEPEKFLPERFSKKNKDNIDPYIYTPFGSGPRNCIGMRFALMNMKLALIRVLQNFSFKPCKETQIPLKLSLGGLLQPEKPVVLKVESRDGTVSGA
assay notes: Time-dependent inhibition study of CYP3A4 in HLMs
Assay type: in vitro ADME
cond: lysionotin 0–50 μM, preincubation 0–30 min, NADPH; printed as KI/Kinact
Procedure: To determine whether lysionotin could inhibit the activity of CYP3A4, 2C19, and 2C8 in a time-dependent manner, lysionotin (20 μM) was pre-incubated with HLMs (1 mg/mL) in the presence of an NADPH-generating system for 30 min at 37 °C. […] After being incubated for 0, 5, 10, 15, and 30 min, the reactions were terminated by adding a 100 μL acetonitrile internal standard mix and then placed on ice; the corresponding metabolites were determined by HPLC. […]
measurement type: Kinact for inactivation of CYP3A4 (min⁻¹)
Kindly provide the numeric value in min⁻¹ only, without the unit symbol.

INPUT: Under CYP3A4 (Homo sapiens, UniProt P08684), report Kinact for inactivation of CYP3A4 for `COc1ccc(-c2cc(=O)c3c(O)c(OC)c(O)c(OC)c3o2)cc1`
OUTPUT: 0.048

* * *

target of assay: CYP3A4 (Homo sapiens)
Construct: Pooled HLMs were purchased from BD Biosciences Discovery Labware; tissue BD Biosciences Discovery Labware; host or cells: pooled human liver microsomes
assay notes: Time-dependent inhibition study of CYP3A4 in HLMs
Format: in vitro ADME
cond: human, human liver microsomes, probe testosterone (approximately 4-fold Km); lysionotin 0–50 μM, preincubation 0–30 min, NADPH; printed as KI/Kinact
measurement type: KI (inactivation) (µM)
Kindly provide the numeric value in µM only, without the unit symbol.

INPUT: Item COc1ccc(-c2cc(=O)c3c(O)c(OC)c(O)c(OC)c3o2)cc1 [lysionotin, Lysionotin] : provide KI (inactivation)
OUTPUT: 6.62
